Test system: OVCAR-8 ovarian
Assay: NCI-60 one-dose screen, 48 h
Conditions: 10 µM unless noted
Compounds without any hit were thinned out: in the full panel of roughly 83,000, 20% have a hit. The source made the active and inactive calls. Rule for the calls: active = growth percent below 10; inactive = the rest.
Select the matching outcome among yes (1) for active, no (0) for inactive

// below: answered molecules
{"molecule": "CCn1c(=S)sc2c(Nc3ccc(F)cc3)nc(-c3cccnc3)nc21", "class.assignment": "no (0)"}
{"molecule": "N#Cc1c(-c2ccc(Cl)cc2)nc(SCC(=O)NC2=NN=C(c3ccccc3)CS2)[nH]c1=O", "class.assignment": "no (0)"}
{"molecule": "CCOC(=O)C1=NN(c2ccccc2)C(=O)/C1=C\\N1C(=O)CC(=O)NC1=S", "class.assignment": "no (0)"}
{"molecule": "CCOC(=O)Cn1c(O)c(N=Nc2ccc(S(N)(=O)=O)cc2)c2cc(Br)ccc21", "class.assignment": "no (0)"}

Query string: Check the results log: what was the call for `O=C(/C=C/c1cccs1)c1ccc(Cl)nc1` ?
Result string: no (0)

Query string: Check the results log: what was the call for `Nc1nc2c([nH]1)c1[nH]c3ccccc3c1c1[nH]c3ccccc3c21` ?
Result string: no (0)

Query string: Check the results log: what was the call for `CCCCCCCCn1ccc2cc(NC(=O)CN3CCN(c4nc(C)cc(Cl)n4)CC3)ccc21` ?
Result string: no (0)

Query string: Check the results log: what was the call for `O=[N+]([O-])c1ccc(-c2nc(N3CCOCC3)c3c4c(sc3n2)CCCC4)cc1` ?
Result string: no (0)

Query string: Check the results log: what was the call for CC(C)N1CN2C(=S)NC3C2N(C1)C(=S)N3C (stereo not drawn) ?
Result string: no (0)

###

Test system: HS 578T breast
Experiment: NCI-60 one-dose screen, 48 h (100 = growth as untreated, 0 = no growth, -100 = all killed)
Settings: 10 µM unless noted
About 83,000 compounds went through this panel and 20% of them were active in at least one assay; those are over-represented in the sample as a whole.
Strictly below 40% in growth: label 1. Otherwise: label 0.

{"compound": "COC(=O)c1c2c(c(C)[n+]([O-])c1C)C(=O)C(NCc1ccc(Cl)cc1)=CC2=O", "class.assignment": "label 0"}
{"compound": "O=C(CCCCCCN1CC(=O)N2[C@H](c3cc(Br)cs3)c3[nH]c4ccccc4c3C[C@H]2C1=O)NO", "class.assignment": "label 0"}
{"compound": "COc1cc(CNS(=O)(=O)c2ccc(C)cc2)ccc1OCc1cn(-c2ccc(Br)cc2)nn1", "class.assignment": "label 0"}
{"compound": "Brc1ccc(-n2cc(-c3nn[nH]n3)c(-c3cccs3)n2)cc1", "class.assignment": "label 0"}

Query string: Determine whether this compound shows growth lower than 40% (ties excluded): `S=C1CCSC(=S)N1CCCN1C(=S)CCSC1=S`
Result string: label 0

Query string: Determine whether this compound shows growth lower than 40% (ties excluded): `COc1ccc2nc3ccc(OC)cc3c(SCCCN)c2c1`
Result string: label 0

Query string: Determine whether this compound shows growth lower than 40% (ties excluded): `CC(=O)[C@@H]1CCC=C2CC[C@]3(C)[C@@H](CC[C@@H]4[C@@]5(C)CCCNC(C)(C)[C@@H]5CC[C@]43C)[C@H]21`
Result string: label 1

Query string: Determine whether this compound shows growth lower than 40% (ties excluded): CCN1C(=O)N(CC)C2C1NN=c1s/c(=C\c3ccc(Cl)cc3Cl)c(=O)n12 (stereo not drawn)
Result string: label 1

Query string: Determine whether this compound shows growth lower than 40% (ties excluded): `C=C1C(=O)O[C@H]2[C@H]1CC/C(COC(=O)CSCCSCC(=O)OC/C1=C/CC[C@@]3(C)O[C@H]3[C@H]3OC(=O)C(=C)[C@@H]3CC1)=C\CC[C@@]1(C)O[C@@H]21`
Result string: label 1

Query string: Determine whether this compound shows growth lower than 40% (ties excluded): `O=C(O)[C@@H]1c2ccccc2-c2ccccc2[C@H]1C(=O)O`
Result string: label 0

Query string: Determine whether this compound shows growth lower than 40% (ties excluded): `C=C1C(=O)O[C@H]2[C@H]1CC/C(COC(=O)NCc1cc[nH]c1)=C\CC[C@@]1(C)O[C@@H]21`
Result string: label 0

Query string: Determine whether this compound shows growth lower than 40% (ties excluded): `Cc1ccc(Sc2oc(-c3ccc(C)cc3)nc2[P+](c2ccccc2)(c2ccccc2)c2ccccc2)cc1`
Result string: label 1
